# target: C-X-C chemokine receptor type 3 (Homo sapiens, UniProt P49682)
# Sequence (P49682 whole entry): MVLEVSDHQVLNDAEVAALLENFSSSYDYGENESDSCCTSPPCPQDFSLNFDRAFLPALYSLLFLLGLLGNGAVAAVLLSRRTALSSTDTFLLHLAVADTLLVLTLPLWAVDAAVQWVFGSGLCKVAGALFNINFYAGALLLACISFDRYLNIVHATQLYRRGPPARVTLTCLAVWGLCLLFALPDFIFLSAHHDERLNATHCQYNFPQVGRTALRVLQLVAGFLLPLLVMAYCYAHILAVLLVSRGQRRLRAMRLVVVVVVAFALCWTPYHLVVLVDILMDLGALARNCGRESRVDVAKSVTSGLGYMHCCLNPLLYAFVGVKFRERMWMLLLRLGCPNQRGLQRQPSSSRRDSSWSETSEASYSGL
# method description: Antagonist activity at CXCR3 (unknown origin) assessed as reduction in CXCL11 induced calcium flux by FLIPR method
Hi! Just check whether IC50 is below 400 nM. Below gives true, equal or above gives false.

{"columns": ["compound", "class label"],
 "data": [
  ["CCN(CC)C(=O)[C@@H]1C=C2C3C=CCc4[nH]cc(c43)C[C@H]2N(C(=O)Nc2ccccc2)C1 (stereo not given in full)", "true"],
  ["C[C@H](c1nc2ncccc2c(=O)n1-c1ccc(Cl)cc1)N(CC1CCS(=O)(=O)CC1)C(=O)Cc1ccc(F)c(C(F)(F)F)c1", "true"],
  ["CCNC(=O)N1CCCN(c2ccc(C(=O)NC(C)C)cc2NC(=O)c2cccc(Cl)c2)CC1", "false"]
]}

Okay, now this compound:
Lookup: Is 400 nM strictly greater than the compound's reported IC50? compound: CCNC(=O)N1CCCN(c2ccc(C(=O)NCCc3ccc(Cl)cc3Cl)cc2NC(=O)c2cccc(Cl)c2)CC1
Found: true

Data origin: ChEMBL document CHEMBL5257017
